Value source: paper PMC8421423

molecular target: UniProt:P31751; experiment: PhosphoSens continuous fluorometric kinetic enzyme assay; settings: read-out: kinact /Ki Akt2, individual determinations, single replicates
Sequence (P31751 whole entry): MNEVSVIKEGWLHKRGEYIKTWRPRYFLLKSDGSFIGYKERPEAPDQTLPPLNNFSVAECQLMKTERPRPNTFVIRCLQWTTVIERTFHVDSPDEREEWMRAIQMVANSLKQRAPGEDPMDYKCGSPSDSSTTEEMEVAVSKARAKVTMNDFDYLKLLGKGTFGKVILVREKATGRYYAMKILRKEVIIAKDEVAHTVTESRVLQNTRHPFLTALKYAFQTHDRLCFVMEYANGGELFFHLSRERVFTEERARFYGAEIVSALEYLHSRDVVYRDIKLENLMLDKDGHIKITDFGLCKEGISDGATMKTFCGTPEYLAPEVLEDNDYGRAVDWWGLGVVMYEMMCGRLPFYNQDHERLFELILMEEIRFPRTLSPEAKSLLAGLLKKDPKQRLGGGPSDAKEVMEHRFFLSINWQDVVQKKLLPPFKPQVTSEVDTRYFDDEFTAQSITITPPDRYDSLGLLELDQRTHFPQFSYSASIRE
compounds and their reported kinact/KI

SMILES INPUT	kinact/KI (M⁻¹ s⁻¹)
C=CC(=O)Nc1ccc2[nH]c(=O)n(C3CCN(Cc4ccc(-c5ncc(Cc6cn[nH]c6)cc5-c5ccccc5)cc4)CC3)c2c1	15000
C=CC(=O)Nc1ccc2[nH]c(=O)n(C3CCN(Cc4ccc(-c5ncc(C(=O)Nc6cccnc6)cc5-c5ccccc5)cc4)CC3)c2c1	30000
C=CC(=O)Nc1ccc2[nH]c(=O)n(C3CCN(Cc4ccc(-c5ncc(Cn6ccnc6)cc5-c5ccccc5)cc4)CC3)c2c1	25000
